# settings: 363.15 K; 101.33 kPa; Liquid
measured-attribute: viscosity (mPa·s)

CCCCCCCC[n+]1ccn(C)c1.NC(=O)C[C@H](N)C(=O)[O-] [1-methyl-3-octylimidazolium L-asparaginate]
66.6

[A] CCCCCCCCn1cc[n+](C)c1.O=C([O-])[C@@H]1CCCN1 [1-methyl-3-octyl-1H-imidazol-3-ium L-prolinate]
[B] CCCCCCCCn1cc[n+](C)c1.NCC(=O)[O-] [1-methyl-3-octylimidazolium glycinate]
[Q] I need your help: which of the pair A , B has higher viscosity? Output the label that corresponds to your choice.
[A] A
(A: 31.9 mPa·s, B: 17.7 mPa·s)

[a] CCCCCCCC[n+]1ccn(C)c1.C[C@H](N)C(=O)[O-] [1-methyl-3-octylimidazolium L-alaninate]
[b] CCCCCCCC[n+]1ccn(C)c1.N[C@@H](CO)C(=O)[O-] [1-methyl-3-octyl-1H-imidazol-3-ium L-serinate]
[Q] I need your help: which of the pair a , b has higher viscosity? Output the label that corresponds to your choice.
[A] b

###

# assay: molar heat capacity at constant pressure
# settings: 323.15 K; 101.33 kPa; Liquid; Small sample (50 mg) DSC
measured-attribute: molar heat capacity at constant pressure (J/K/mol)

CCCCCCCC[n+]1ccn(C)c1.N[C@@H](CO)C(=O)[O-] [1-methyl-3-octyl-1H-imidazol-3-ium L-serinate]
624.21
CCCCCCCCn1cc[n+](C)c1.O=C([O-])[C@@H]1CCCN1 [1-methyl-3-octyl-1H-imidazol-3-ium L-prolinate]
590.88
CCCCCCCC[n+]1ccn(C)c1.C[C@H](N)C(=O)[O-] [1-methyl-3-octylimidazolium L-alaninate]
620.49
CCCCCCCC[n+]1ccn(C)c1.NC(=O)C[C@H](N)C(=O)[O-] [1-methyl-3-octylimidazolium L-asparaginate]
682.99
CCCCCCCCn1cc[n+](C)c1.NCC(=O)[O-] [1-methyl-3-octylimidazolium glycinate]
526.8

###

# assay: molar heat capacity at constant pressure
# settings: 353.15 K; 101.33 kPa; Liquid; Small sample (50 mg) DSC
measured-attribute: molar heat capacity at constant pressure (J/K/mol)

CCCCCCCC[n+]1ccn(C)c1.NC(=O)C[C@H](N)C(=O)[O-] [1-methyl-3-octylimidazolium L-asparaginate]
717.01
CCCCCCCC[n+]1ccn(C)c1.C[C@H](N)C(=O)[O-] [1-methyl-3-octylimidazolium L-alaninate]
657.43
CCCCCCCCn1cc[n+](C)c1.NCC(=O)[O-] [1-methyl-3-octylimidazolium glycinate]
555.85
CCCCCCCCn1cc[n+](C)c1.O=C([O-])[C@@H]1CCCN1 [1-methyl-3-octyl-1H-imidazol-3-ium L-prolinate]
627.51
CCCCCCCC[n+]1ccn(C)c1.N[C@@H](CO)C(=O)[O-] [1-methyl-3-octyl-1H-imidazol-3-ium L-serinate]
655.67

###

# settings: 303.15 K; 101.33 kPa; Liquid; Vibrating tube method
measured-attribute: mass density (kg/m3)

CCCCCCCCn1cc[n+](C)c1.NCC(=O)[O-] [1-methyl-3-octylimidazolium glycinate]
1035.3
CCCCCCCC[n+]1ccn(C)c1.N[C@@H](CO)C(=O)[O-] [1-methyl-3-octyl-1H-imidazol-3-ium L-serinate]
1069.3
CCCCCCCCn1cc[n+](C)c1.O=C([O-])[C@@H]1CCCN1 [1-methyl-3-octyl-1H-imidazol-3-ium L-prolinate]
1058.2
CCCCCCCC[n+]1ccn(C)c1.NC(=O)C[C@H](N)C(=O)[O-] [1-methyl-3-octylimidazolium L-asparaginate]
1061.7
CCCCCCCC[n+]1ccn(C)c1.C[C@H](N)C(=O)[O-] [1-methyl-3-octylimidazolium L-alaninate]
982.1

###

# settings: 373.15 K; 101.33 kPa; Liquid; Vibrating tube method
measured-attribute: mass density (kg/m3)

CCCCCCCCn1cc[n+](C)c1.O=C([O-])[C@@H]1CCCN1 [1-methyl-3-octyl-1H-imidazol-3-ium L-prolinate]
1013.9
CCCCCCCC[n+]1ccn(C)c1.NC(=O)C[C@H](N)C(=O)[O-] [1-methyl-3-octylimidazolium L-asparaginate]
1030.1
CCCCCCCC[n+]1ccn(C)c1.N[C@@H](CO)C(=O)[O-] [1-methyl-3-octyl-1H-imidazol-3-ium L-serinate]
1024.2
CCCCCCCCn1cc[n+](C)c1.NCC(=O)[O-] [1-methyl-3-octylimidazolium glycinate]
992.8
CCCCCCCC[n+]1ccn(C)c1.C[C@H](N)C(=O)[O-] [1-methyl-3-octylimidazolium L-alaninate]
959.7

###

# settings: 323.15 K; 101.33 kPa; Liquid
measured-attribute: viscosity (mPa·s)

CCCCCCCCn1cc[n+](C)c1.O=C([O-])[C@@H]1CCCN1 [1-methyl-3-octyl-1H-imidazol-3-ium L-prolinate]
211
CCCCCCCC[n+]1ccn(C)c1.C[C@H](N)C(=O)[O-] [1-methyl-3-octylimidazolium L-alaninate]
106.9

[P] CCCCCCCC[n+]1ccn(C)c1.N[C@@H](CO)C(=O)[O-] [1-methyl-3-octyl-1H-imidazol-3-ium L-serinate]
[Q] CCCCCCCC[n+]1ccn(C)c1.NC(=O)C[C@H](N)C(=O)[O-] [1-methyl-3-octylimidazolium L-asparaginate]
[R] CCCCCCCCn1cc[n+](C)c1.NCC(=O)[O-] [1-methyl-3-octylimidazolium glycinate]
[Q] Sequence the entries by viscosity, beginning with the highest number. Write the labels, ordered according to the request.
[A] Q, P, R

###

# settings: 343.15 K; 101.33 kPa; Liquid; Vibrating tube method
measured-attribute: mass density (kg/m3)

CCCCCCCC[n+]1ccn(C)c1.NC(=O)C[C@H](N)C(=O)[O-] [1-methyl-3-octylimidazolium L-asparaginate]
1044.1
CCCCCCCC[n+]1ccn(C)c1.N[C@@H](CO)C(=O)[O-] [1-methyl-3-octyl-1H-imidazol-3-ium L-serinate]
1043.3
CCCCCCCC[n+]1ccn(C)c1.C[C@H](N)C(=O)[O-] [1-methyl-3-octylimidazolium L-alaninate]
969.3
CCCCCCCCn1cc[n+](C)c1.O=C([O-])[C@@H]1CCCN1 [1-methyl-3-octyl-1H-imidazol-3-ium L-prolinate]
1032.8
CCCCCCCCn1cc[n+](C)c1.NCC(=O)[O-] [1-methyl-3-octylimidazolium glycinate]
1010.6

###

# assay: molar heat capacity at constant pressure
# settings: 333.15 K; 101.33 kPa; Liquid; Small sample (50 mg) DSC
measured-attribute: molar heat capacity at constant pressure (J/K/mol)

CCCCCCCCn1cc[n+](C)c1.NCC(=O)[O-] [1-methyl-3-octylimidazolium glycinate]
536.66
CCCCCCCC[n+]1ccn(C)c1.NC(=O)C[C@H](N)C(=O)[O-] [1-methyl-3-octylimidazolium L-asparaginate]
694.16
CCCCCCCC[n+]1ccn(C)c1.N[C@@H](CO)C(=O)[O-] [1-methyl-3-octyl-1H-imidazol-3-ium L-serinate]
634.19
CCCCCCCCn1cc[n+](C)c1.O=C([O-])[C@@H]1CCCN1 [1-methyl-3-octyl-1H-imidazol-3-ium L-prolinate]
603.42
CCCCCCCC[n+]1ccn(C)c1.C[C@H](N)C(=O)[O-] [1-methyl-3-octylimidazolium L-alaninate]
632.82

###

# assay: molar heat capacity at constant pressure
# settings: 293.15 K; 101.33 kPa; Liquid; Small sample (50 mg) DSC
measured-attribute: molar heat capacity at constant pressure (J/K/mol)

CCCCCCCC[n+]1ccn(C)c1.N[C@@H](CO)C(=O)[O-] [1-methyl-3-octyl-1H-imidazol-3-ium L-serinate]
599.21
CCCCCCCC[n+]1ccn(C)c1.C[C@H](N)C(=O)[O-] [1-methyl-3-octylimidazolium L-alaninate]
592.06
CCCCCCCC[n+]1ccn(C)c1.NC(=O)C[C@H](N)C(=O)[O-] [1-methyl-3-octylimidazolium L-asparaginate]
654
CCCCCCCCn1cc[n+](C)c1.NCC(=O)[O-] [1-methyl-3-octylimidazolium glycinate]
504.06
CCCCCCCCn1cc[n+](C)c1.O=C([O-])[C@@H]1CCCN1 [1-methyl-3-octyl-1H-imidazol-3-ium L-prolinate]
561.68

###

# settings: 313.15 K; 101.33 kPa; Liquid; Vibrating tube method
measured-attribute: mass density (kg/m3)

CCCCCCCC[n+]1ccn(C)c1.C[C@H](N)C(=O)[O-] [1-methyl-3-octylimidazolium L-alaninate]
978.6
CCCCCCCCn1cc[n+](C)c1.NCC(=O)[O-] [1-methyl-3-octylimidazolium glycinate]
1029.1
CCCCCCCC[n+]1ccn(C)c1.NC(=O)C[C@H](N)C(=O)[O-] [1-methyl-3-octylimidazolium L-asparaginate]
1057.2
CCCCCCCCn1cc[n+](C)c1.O=C([O-])[C@@H]1CCCN1 [1-methyl-3-octyl-1H-imidazol-3-ium L-prolinate]
1051.8
CCCCCCCC[n+]1ccn(C)c1.N[C@@H](CO)C(=O)[O-] [1-methyl-3-octyl-1H-imidazol-3-ium L-serinate]
1062.7

###

# settings: 343.15 K; 101.33 kPa; Liquid
measured-attribute: viscosity (mPa·s)

CCCCCCCC[n+]1ccn(C)c1.NC(=O)C[C@H](N)C(=O)[O-] [1-methyl-3-octylimidazolium L-asparaginate]
182.6

[P] CCCCCCCCn1cc[n+](C)c1.O=C([O-])[C@@H]1CCCN1 [1-methyl-3-octyl-1H-imidazol-3-ium L-prolinate]
[Q] CCCCCCCC[n+]1ccn(C)c1.C[C@H](N)C(=O)[O-] [1-methyl-3-octylimidazolium L-alaninate]
[Q] I need your help: which of the pair P , Q has higher viscosity? Output the label that corresponds to your choice.
[A] P
(P: 73.2 mPa·s, Q: 42.9 mPa·s)

[I] CCCCCCCCn1cc[n+](C)c1.NCC(=O)[O-] [1-methyl-3-octylimidazolium glycinate]
[II] CCCCCCCC[n+]1ccn(C)c1.N[C@@H](CO)C(=O)[O-] [1-methyl-3-octyl-1H-imidazol-3-ium L-serinate]
[Q] I need your help: which of the pair I , II has higher viscosity? Output the label that corresponds to your choice.
[A] II
(II: 88.9 mPa·s, I: 34.9 mPa·s)

The measured values listed here are drawn from the NIST ThermoML archive (doi:10.1021/je501162f).
